Target: human CTLA-4 (human)
Sequence (chain, as listed by the source): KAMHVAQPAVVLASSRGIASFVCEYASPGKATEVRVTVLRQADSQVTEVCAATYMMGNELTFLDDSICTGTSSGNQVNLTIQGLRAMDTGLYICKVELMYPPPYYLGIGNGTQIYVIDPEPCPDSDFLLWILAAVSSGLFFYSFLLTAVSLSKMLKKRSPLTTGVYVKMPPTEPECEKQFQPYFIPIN
Assay: flow cytometry, CHO/CTLA-4 cells, 100 nM, anti-Flag
measured.parameter: MFI
Lab note: write the figure by itself, no unit.

Asked: Reported MFI for CD80 2616-PD-L2 1417 (other) VIHVTKEVKEVATLSCGHNVSLEELAQTRIYWQKGKKMVLTMMSGDMNIWPEYKNRTIFDITNNLSIVILDPRPSDEGTYECVVLKYEKDAFKREHLAEVGSGGSGGGGSGGGGSLFTVTVPKELYIIEQGSNVTLECNFDTGSHVNLGAITASLQKVENDASPHRERATLLEEQLPLGRALFHIPQVQVRDEGQYRCIIIYGDAWDYKYLTLKVKADYKDDDDKHHHHHH : what is it?
Given back: 82.5

Asked: Reported MFI for CD80 2617-PD-L2 1417 (other) VIHVTKEVKEVATLSCGHNVSVEELAQTRIYWQKGKKMVLTMMSGDMNIWPEYENRTIFDITNNLSIVILDPRPSDEGTYECVVLKYEKDAFKREHLAEVGSGGSGGGGSGGGGSLFTVTVPKELYIIEQGSNVTLECNFDTGSHVNLGAITASLQKVENDASPHRERATLLEEQLPLGRALFHIPQVQVRDEGQYRCIIIYGDAWDYKYLTLKVKADYKDDDDKHHHHHH : what is it?
Given back: 75.5

Proceed to the following item.
Asked: Reported MFI for PD-L2 1417-CD80 2617 (other) LFTVTVPKELYIIEQGSNVTLECNFDTGSHVNLGAITASLQKVENDASPHRERATLLEEQLPLGRALFHIPQVQVRDEGQYRCIIIYGDAWDYKYLTLKVKAGSGGSGGGGSGGGGSVIHVTKEVKEVATLSCGHNVSVEELAQTRIYWQKGKKMVLTMMSGDMNIWPEYENRTIFDITNNLSIVILDPRPSDEGTYECVVLKYEKDAFKREHLAEVDYKDDDDKHHHHHH : what is it?
Given back: 85
